Assay: NCI Yeast Anticancer Drug Screen. Data for the cln2 rad14 strain (AID 165);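 note: 0% = growth equal to vehicle treated cultures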
Settings: S. cerevisiae cln2 rad14 strain, at 50.0 µM (retest, dose inferred, filed as 5.0)
Description: Growth inhibition of yeast strains with defined genetic alterations is measured as a screen for potential anti-cancer activity. Selected strains with alterations in DNA damage repair or cell cycle control were exposed to compounds and growth inhibition was measured relative to vehicle treated controls. The strain used in this assay is cln2 rad14
Compounds without any hit were thinned out: in the full panel of roughly 79,000, 15% have a hit. The source made the active and inactive calls. Cut-off read from the data, not from the text of the source: active = growth inhibition above about 70%; inactive = the rest.
Classes to choose from: active, inactive

Some entries whose results are on file:
C/C(=N/NC(N)=S)c1ccc(Cl)cc1
active
Cc1cc(C)c(C[N+](C)(C)C)c(C)c1C
active
ClCCN(CCCl)c1ccc(C2N(Cc3ccc(Cl)cc3)CCN2Cc2ccc(Cl)cc2)cc1
active
CCOC(=O)C1=C(C)/C(=C/c2[n-]c(C)c(C(=O)OCC)c2C)N=C1C.CCOC(=O)C1=C(C)/C(=C/c2[n-]c(C)c(C(=O)OCC)c2C)N=C1C.[Zn+2]
inactive
COc1cc(/C=C(/C)[N+](=O)[O-])c([N+](=O)[O-])cc1OC
inactive
O=C(c1ccccc1)c1c(CC(O)c2cccnc2)n(C(=O)c2ccccc2)c2ccccc12 (stereo unspecified)
active
C#CC(O)(CC)CC
inactive
Cc1ccc2c(c1)N(CCN(CCCl)CCCl)c1c(ccc3ccccc13)S2
active

I would be grateful if you could indicate the recorded call for CCC[CH2][Sn]1([CH2]CCC)[O]C2C(O)OC(CO)C(O)C2[O]1 (stereo unspecified) .
active

Hi, do you know how `O=[N+]([O-])/C=C/c1ccc([N+](=O)[O-])cc1` came out in this test?
active

Which result was noted for this molecule in the test: `Oc1c(Cl)c(Cl)cc(Cl)c1Cl`
active

---

Assay: NCI Yeast Anticancer Drug Screen. Data for the mlh1 rad18 strain (AID 175)
Conditions: S. cerevisiae mlh1 rad18 strain growth inhibition; at 50.0 µM; active compounds read high
This is part of a sample that, as a whole, favours compounds with a hit. Of some 79,000 tested, about 15% had one in any assay.
Catalogue of growth inhibition readings, one per entry.
Give the value in % but do not write % after it.

Illustrative cases are given below, each with its answer.
O=c1ccc(N=Cc2ccc(N(CCCl)CCCl)cc2)ccc1O
93.8
ClCCCBr
21.9
COc1ccc2c3c1O[C@H]1C(Br)C=C[C@H]4[C@@H](C2)N(C)CC[C@]314 (some centres not stated)
8.35
Cc1ccc2n[se]nc2c1
-8.15
CCCCSP(SCCCC)N1CCCCC1
88

For the compound shown here, O=C1c2c(ccc3ccccc23)CN2CCCCC12 (configuration not stated) , give the reported growth inhibition.
45.2

// growth inhibition lookup, key: CC1([N+](=O)[O-])COP(=O)(NCC2CCCO2)OC1 (configuration not stated)
3.95

---

Experiment: NCI Yeast Anticancer Drug Screen. Data for the rad50 strain (AID 155);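 note: 0% = growth of vehicle-only cultures of the same strain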
Settings: S. cerevisiae rad50 strain growth inhibition; at 50.0 µM; active compounds read high
Procedure: Growth inhibition of yeast strains with defined genetic alterations is measured as a screen for potential anti-cancer activity. Selected strains with alterations in DNA damage repair or cell cycle control were exposed to compounds and growth inhibition was measured relative to vehicle treated controls. The strain used in this assay is rad50
This is part of a sample that, as a whole, favours compounds with a hit. Of some 79,000 tested, about 15% had one in any assay.
Measured growth inhibition, listed per entry for reference.
Report as a plain number; the unit % is understood.

Examples from the recorded data:
CC(=O)O[C@H]1C(=O)O[C@@H]2C[C@H]3C(C)=CC(=O)[C@@H](O)[C@]3(C)[C@H]3[C@@]4(O)OC[C@]32[C@@H]1[C@@H](C)[C@H]4O
81
Cc1cccc(N)c1
6.5
CCCCCCC1C(=O)NC(=O)NC1=O
-4.25
CCCCCCCCCCCCCCC(O)C1CCC(C(O)CCC(O)CCCCCC(O)CC2=CC(C)OC2=O)O1 (stereo not given)
-37.2
c1ccc(C(NC2=NCCO2)c2ccccc2)cc1
-19

Form field: reported growth inhibition of CCC1(O)C(=O)OCc2c1cc1n(c2=O)Cc2cc3cc(C)ccc3nc2-1 (stereo not given)
82.2

For the compound `[CH3][Pb]([CH3])([CH3])[O]C(=O)c1ccc([N+](=O)[O-])cc1` , what growth inhibition is on record?
28.7

Look up growth inhibition: `Cc1cc2[nH]c3c(C#N)c(OC(=O)N(C)C)c(C)c(=O)n3c2cc1C`
37.3

Requested field: growth inhibition. Item: `CN(C)C(=O)Sc1c(Cl)cc(S(=O)(=O)F)cc1[N+](=O)[O-]`
22.9

Please give the measured growth inhibition for this compound: O=C(O)C(CSC(c1ccccc1)c1ccccc1)N1C(=O)c2ccccc2C1=O (stereo not given)
47.9

# lookup: growth inhibition of `COc1ccc(O)c(/C=C/[N+](=O)[O-])c1`
99.4

Please report the recorded growth inhibition for `C[CH2][Sn]([CH2]C)([O]C(=O)c1ccc(F)cc1)[O]C(=O)c1ccc(F)cc1` .
30.5

Which growth inhibition is listed for CC(C)(C)N1OC1C(Cl)(Cl)Cl (stereo not given) ?
-20.6

Name the reported growth inhibition value associated with the compound `CCCCCCCCCCCC[C@@H](O)[C@H]1CC[C@H]([C@H](O)CCCC[C@H](O)CCCCC[C@@H](O)CC2=C[C@H](C)OC2=O)O1`
10

Please report the recorded growth inhibition for `Nc1nc(N)c(-c2ccc(Cl)c(Cl)c2)c(COc2cccc(CNS(=O)(=O)c3ccc(S(=O)(=O)F)cc3)c2)n1` .
51.1

What measured growth inhibition goes with `C[n+]1ccccc1-c1ccc[n+](CCCC[n+]2cccc(-c3cccc[n+]3C)c2)c1` ?
-8.5

Any idea what its growth inhibition is? The compound is `COC(=O)[C@H]1[C@@H](O)[C@@]2(O)c3c(OC)cc(OC)cc3O[C@@]2(c2ccc3c(c2)OCO3)[C@@H]1c1ccccc1`
89

I'd like to know its growth inhibition. The compound in question is CN1C(=O)C2(Cc3cn(C45CC67SSC(CO)(C(=O)N6C4Nc4ccccc45)N(C)C7=O)c4ccccc34)SSC1(CO)C(=O)N2C (stereo not given)
90.2

What measured growth inhibition goes with `CNC1(c2ccccc2)CC1` ?
24.9

Param item = `Cc1cnc2ncn(Cc3c[nH]c(=O)[nH]c3=O)c(=O)c2c1` ; retrieve measured growth inhibition.
-0.45
